molecular target: Peroxisome proliferator-activated receptor delta (Canis lupus familiaris); assay: Agonist activity at dog PPARdelta
Sequence (Q0ZAQ8 whole entry): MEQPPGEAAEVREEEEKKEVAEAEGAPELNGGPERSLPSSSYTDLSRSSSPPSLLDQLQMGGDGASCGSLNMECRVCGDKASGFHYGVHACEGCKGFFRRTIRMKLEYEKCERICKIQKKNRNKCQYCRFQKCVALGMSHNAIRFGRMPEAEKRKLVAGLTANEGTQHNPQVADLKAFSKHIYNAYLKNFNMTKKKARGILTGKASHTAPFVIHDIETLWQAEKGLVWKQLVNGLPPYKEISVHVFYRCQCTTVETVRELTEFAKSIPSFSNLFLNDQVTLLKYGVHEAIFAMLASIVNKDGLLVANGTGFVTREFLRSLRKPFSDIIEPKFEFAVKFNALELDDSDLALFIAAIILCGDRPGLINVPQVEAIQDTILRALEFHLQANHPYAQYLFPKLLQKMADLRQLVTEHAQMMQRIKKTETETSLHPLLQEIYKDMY
pEC50: −log10 of the molar value.
OUTCOME MEASURE: pEC50

structure_string=Cc1nc(-c2ccc(Cl)cc2)sc1C(=O)N[C@H]1CCCN(c2cccc(C(=O)O)c2)C1 outcome_measure=pEC50 assay_result=5.57

---

biological target: Peroxisome proliferator-activated receptor alpha (Rattus norvegicus); assay: Agonist activity at rat PPARalpha
Sequence (P37230 whole entry): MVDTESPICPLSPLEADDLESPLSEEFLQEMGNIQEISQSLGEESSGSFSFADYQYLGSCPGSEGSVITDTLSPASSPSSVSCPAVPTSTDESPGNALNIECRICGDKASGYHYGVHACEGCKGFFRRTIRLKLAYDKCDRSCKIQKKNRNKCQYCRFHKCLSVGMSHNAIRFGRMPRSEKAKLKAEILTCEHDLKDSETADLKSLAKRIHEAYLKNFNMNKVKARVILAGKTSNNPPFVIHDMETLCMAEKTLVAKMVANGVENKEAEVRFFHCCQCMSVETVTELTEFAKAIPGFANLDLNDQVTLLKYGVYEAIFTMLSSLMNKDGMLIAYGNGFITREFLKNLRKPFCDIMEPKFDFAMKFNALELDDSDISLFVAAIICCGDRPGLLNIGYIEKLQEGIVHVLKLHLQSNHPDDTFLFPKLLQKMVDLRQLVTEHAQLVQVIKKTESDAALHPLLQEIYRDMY
OUTCOME MEASURE: EC50

structure_string=Cc1nc(-c2ccc(Cl)cc2)sc1C(=O)N[C@H]1CCCN(c2cccc(C(=O)O)c2)C1 assay_result="3.6 µM"

---

biological target: Peroxisome proliferator-activated receptor delta (Homo sapiens); assay: Transactivation of human PPARdelta expressed in CHO-K1 cells at 30 uM; assay type: cell-based
Sequence (Q03181 whole entry): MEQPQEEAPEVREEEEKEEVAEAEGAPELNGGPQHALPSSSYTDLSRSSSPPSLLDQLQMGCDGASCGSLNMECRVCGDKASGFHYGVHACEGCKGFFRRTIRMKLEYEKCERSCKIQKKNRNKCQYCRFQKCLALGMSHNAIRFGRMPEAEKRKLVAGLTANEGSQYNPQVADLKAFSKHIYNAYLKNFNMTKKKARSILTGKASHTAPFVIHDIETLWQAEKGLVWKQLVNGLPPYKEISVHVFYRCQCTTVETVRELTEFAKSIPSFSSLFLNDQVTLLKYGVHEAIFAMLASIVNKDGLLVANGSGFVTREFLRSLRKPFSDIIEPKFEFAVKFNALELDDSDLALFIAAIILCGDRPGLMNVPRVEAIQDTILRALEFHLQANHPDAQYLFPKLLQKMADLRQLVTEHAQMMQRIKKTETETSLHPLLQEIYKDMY
OUTCOME MEASURE: EC50

compound="Cc1nc(-c2ccc(Cl)cc2)sc1C(=O)NCC1CCCN(c2cccc(C(=O)O)c2)C1 (centres undefined)" outcome_measure=EC50 assay_result="Not Active"
compound=Cc1nc(-c2ccc(Cl)cc2)sc1C(=O)N[C@@H]1CCCN(c2cccc(C(=O)O)c2)C1 outcome_measure=EC50 assay_result="Not Active"
compound="Cc1nc(-c2ccc(Cl)cc2)sc1C(=O)NCC1CCN(c2cccc(C(=O)O)c2)C1 (centres undefined)" outcome_measure=EC50 assay_result="Not Active"
compound="Cc1nc(-c2ccc(Cl)cc2)sc1NC(=O)C1CCCN(c2cccc(C(=O)O)c2)C1 (centres undefined)" outcome_measure=EC50 assay_result="Not Active"
